Molecular target: SARS-CoV-2 Main Protease (SARS-CoV-2) (UniProt P0DTD1)
As shown below, each of these compounds has a reported IC50 value.
Write the number in µM without appending the unit.

Reference set, count: 3
{"Compound": "O=C(Cc1cc(Cl)cc(NC[C@H](O)c2ccc(O)cc2)c1)Nc1cncc2ccccc12 (stereo in doubt)", "IC50 [µM]": 1.64}
{"Compound": "COC(=O)C1(NC(=O)C(c2cccnc2)N(C(=O)c2cocn2)c2ccc(C(C)(C)C)cc2)CCCC1 (stereo not given)", "IC50 [µM]": 5.26}
{"Compound": "CNC(=O)c1cc2c(NC(=O)C3CCOc4ccc(Cl)cc43)cncc2s1 (stereo not given)", "IC50 [µM]": 0.571}

Fill in the recorded IC50 for this compound, with SARS-CoV-2 Main Protease (SARS-CoV-2) (UniProt P0DTD1) as test system: O=C(Cc1cc(Cl)cc(Nc2nc3c(Cl)cccc3s2)c1)Nc1cncc2ccccc12
2.11

Fill in the recorded IC50 for this compound, with SARS-CoV-2 Main Protease (SARS-CoV-2) (UniProt P0DTD1) as test system: Cc1noc(COc2cc(Cl)cc(CC(=O)Nc3cnccc3C)c2)n1
23.9

Fill in the recorded IC50 for this compound, with SARS-CoV-2 Main Protease (SARS-CoV-2) (UniProt P0DTD1) as test system: O=C(Cc1cc(Cl)cc(NC[C@@H](c2cccnc2)N2CCOCC2)c1)Nc1cncc2ccccc12 (stereo in doubt)
2.58

Fill in the recorded IC50 for this compound, with SARS-CoV-2 Main Protease (SARS-CoV-2) (UniProt P0DTD1) as test system: O=C(Cc1cc(Cl)cc(Nc2cccnc2Br)c1)Nc1cncc2ccccc12
2.08
